- METHOD DESCRIPTION: gradient 5% acetonitrile 3 min, to 50% in 2 min, to 85% in 15 min, held 3 min, 100 µL/min
- CONDITION: column: Zorbax Extend-C18 2.1 x 50 mm; eluents: water / acetonitrile, 0.1% formic acid
OBSERVATION TYPE: RP-LC retention time (s)

Example entries and their recorded answers appear below.
Q: Can you look up the measured RP-LC retention time of NC(=O)c1ccc2c(c1)S(=O)(=O)c1ccccc1C2=O for me?
A: 727

Q: Can you look up the measured RP-LC retention time of COc1ccc(NC(=O)Cn2c(=O)n(-c3ccc(F)cc3)c(=O)c3c2cc(C)n3C)cc1OC for me?
A: 739

a = O=C(CSc1ccc(-c2cccnc2)nn1)NCC1CCCO1 (centres undefined)
b = CCOC(=O)Oc1c(OC)cc(C(=O)O[C@@H]2C[C@@H]3CN4CCc5c([nH]c6cc(OC)ccc56)[C@H]4C[C@@H]3[C@H](C(=O)OC)[C@H]2OC)cc1OC
Q: Short answer wanted: higher RP-LC retention time, a or b ? Write down the label of the entry you select.
A: b

* * *

- METHOD DESCRIPTION: gradient 5% acetonitrile 3 min, to 50% in 2 min, to 85% in 15 min, held 3 min, 100 µL/min
- CONDITION: column: Zorbax Extend-C18 2.1 x 50 mm; eluents: water / acetonitrile, 0.1% formic acid
OBSERVATION TYPE: RP-LC retention time (s)

Q: Can you look up the measured RP-LC retention time of CCCn1cc(C(=O)Nc2cccc(F)c2)c(S(=O)(=O)N2CCC(C)CC2)n1 for me?
A: 1220

Q: Can you look up the measured RP-LC retention time of Cc1ccc(C)c(C(=O)Nc2cccn3c(C)nnc23)c1 for me?
A: 695

Q: Can you look up the measured RP-LC retention time of COc1ccc(OC)c(NC(=O)N2CCC3(CC2)NC(=O)c2ccccc2O3)c1 for me?
A: 740

Q: Can you look up the measured RP-LC retention time of Cc1ccc(NC(=O)Cn2nc(N3CCSCC3)c3ccccc3c2=O)cc1 for me?
A: 1170

Q: Can you look up the measured RP-LC retention time of O=C1C(N2CCN(S(=O)(=O)c3ccc(Cl)cc3)CC2)CCN1CCc1ccccc1 (stereo not given) for me?
A: 718

1 = O=C(CCNc1c(-c2cccc(F)c2)nc2cnccn12)NCc1cccc(Cl)c1
2 = CCC(C)NS(=O)(=O)c1cc(-c2cc(C(F)(F)F)on2)sc1C (stereo not given)
3 = CC(CN1CC(=O)NC(=O)C1)N1CC(=O)NC(=O)C1 (stereo not given)
Q: Please list these compounds in decreasing order of RP-LC retention time. Arrange the labels as the request states and list them.
A: 2, 1, 3

A = Cc1nn2c(CNS(=O)(=O)c3ccc(C)c(C)c3)c(-c3ccccc3)nc2s1
B = O=C1c2cccc3cccc(c23)C(=O)N1CC(=O)N1CCCc2ccccc21
C = COc1ccc(OC(=O)c2cc3c(C)nn(-c4cccc(F)c4)c3s2)cc1
Q: Form: Sort by [RP-LC retention time] Order [ ascending ] Arrange the labels as the request states and list them.
A: B, A, C
(B: 593 s, A: 916 s, C: 1460 s)

* * *

- METHOD DESCRIPTION: gradient 5% acetonitrile 3 min, to 50% in 2 min, to 85% in 15 min, held 3 min, 100 µL/min
- CONDITION: column: Zorbax Extend-C18 2.1 x 50 mm; eluents: water / acetonitrile, 0.1% formic acid
OBSERVATION TYPE: RP-LC retention time (s)

Example entries and their recorded answers appear below.
Q: Can you look up the measured RP-LC retention time of CCCNc1cc(N2CCCC(CCC(=O)N3CCN(c4ncccn4)CC3)C2)ncn1 (centres undefined) for me?
A: 637

Q: Can you look up the measured RP-LC retention time of O=C(NC1CCCC1)C1CC(=O)N(c2ccc3c(c2)CCN3C(=O)C2CCC2)C1 (centres undefined) for me?
A: 760

Q: Can you look up the measured RP-LC retention time of CCOc1ccccc1NC(=O)CSc1nccc(N2CCN(c3cc(C)ccc3C)CC2)n1 for me?
A: 861

Q: Can you look up the measured RP-LC retention time of CC1=C(c2ccc(C)c(C)c2)S(=O)(=O)N=C1N1CCCN(C(=O)C2CCCO2)CC1 (centres undefined) for me?
A: 790

Q: Can you look up the measured RP-LC retention time of CSc1nnc(-c2nn(C)c3c2CN(C(=O)CCc2ccccc2)CC3)n1C for me?
A: 719

a = COc1ccc(C2C(C(=O)NCCCN3CCOCC3)CCC(=O)N2c2ccc(OC)cc2)cc1 (centres undefined)
b = Cc1ccccc1C(=O)Nc1nc(-c2ccc3c(c2)N(C)C(=O)CO3)cs1
Q: // compare: a vs b , metric RP-LC retention time, want the smaller Write down the label of the entry you select.
A: a

a = COc1cc(CN2C[C@@H]3C(=O)N(Cc4ccc5c(c4)OCO5)C(=O)[C@@H]3C2)cc(OC)c1
b = O=S(=O)(c1cccc(-c2nnc(-c3ccc(F)cc3)o2)c1)N1CCCCCC1
Q: // compare: a vs b , metric RP-LC retention time, want the smaller Write down the label of the entry you select.
A: a

I = Cc1cnc(C2CCOCC2)n1C1CCCN(S(=O)(=O)Cc2ccccc2)C1 (centres undefined)
II = O=C(c1cc(S(=O)(=O)N2CCCC(C(=O)N3CCc4ccccc43)C2)c[nH]1)N1CCCCCC1 (centres undefined)
Q: Short answer wanted: higher RP-LC retention time, I or II ? Write down the label of the entry you select.
A: II
(II: 949 s, I: 646 s)

* * *

- METHOD DESCRIPTION: gradient 5% acetonitrile 3 min, to 50% in 2 min, to 85% in 15 min, held 3 min, 100 µL/min
- CONDITION: column: Zorbax Extend-C18 2.1 x 50 mm; eluents: water / acetonitrile, 0.1% formic acid
OBSERVATION TYPE: RP-LC retention time (s)

Example entries and their recorded answers appear below.
Q: Can you look up the measured RP-LC retention time of COc1ccccc1-c1nnc(C2CCN(C(=O)c3ccccc3)CC2)o1 for me?
A: 741

Q: Can you look up the measured RP-LC retention time of CCn1cc(C)c(C(=O)O)c1CC(=O)Nc1ccc2c(c1)OCCO2 for me?
A: 762

Q: Can you look up the measured RP-LC retention time of COc1cc2c(cc1OC)C(C(=O)Nc1ccc3c(c1)OCO3)C(c1cccs1)N(C)C2=O (stereo not given) for me?
A: 790

I = O=C(NC1CCCCC1)c1cc2n(n1)CCCN(Cc1ccccc1)C2=O
II = O=C(NCCCN1CCCC1)C1CCN(c2nc3cccnc3s2)CC1
Q: Short answer wanted: higher RP-LC retention time, I or II ? Write down the label of the entry you select.
A: I

* * *

- METHOD DESCRIPTION: gradient 5% acetonitrile 3 min, to 50% in 2 min, to 85% in 15 min, held 3 min, 100 µL/min
- CONDITION: column: Zorbax Extend-C18 2.1 x 50 mm; eluents: water / acetonitrile, 0.1% formic acid
OBSERVATION TYPE: RP-LC retention time (s)

Q: Can you look up the measured RP-LC retention time of O=C(c1ccc(F)cc1)N1CCC(C(=O)N2CCc3ccccc32)CC1 for me?
A: 822

Q: Can you look up the measured RP-LC retention time of NC(N)=N/N=C(\c1ccc(Cl)cc1)C1CC1 for me?
A: 665

Q: Can you look up the measured RP-LC retention time of CN(C)c1nc2ncn3c(=O)n(CC(=O)Nc4ccccc4)nc3c2s1 for me?
A: 670

Q: Can you look up the measured RP-LC retention time of CC(C)CC(=O)N1CCCn2nc(-c3ccncc3)cc2C1 for me?
A: 543

Q: Can you look up the measured RP-LC retention time of O=C(c1cccs1)N1CCCn2cc(-c3ccccc3F)nc21 for me?
A: 666

* * *

- METHOD DESCRIPTION: gradient 5% acetonitrile 3 min, to 50% in 2 min, to 85% in 15 min, held 3 min, 100 µL/min
- CONDITION: column: Zorbax Extend-C18 2.1 x 50 mm; eluents: water / acetonitrile, 0.1% formic acid
OBSERVATION TYPE: RP-LC retention time (s)

Q: Can you look up the measured RP-LC retention time of Cc1cc(Cl)ccc1OCc1nc(-c2ccc3c(c2)ncn3CCC(=O)N2CCCCC2)no1 for me?
A: 956

Q: Can you look up the measured RP-LC retention time of CCc1cccc(C)c1NC(=O)C1CCCN(S(=O)(=O)c2cc(-c3noc(C)n3)cs2)C1 (stereo not given) for me?
A: 995

I = c1cncc(-c2nc(-c3ccc4c(c3)ncn4CCN3CCCCC3)no2)c1
II = COCCn1c(SCc2nc(-c3ccc4c(c3)OCO4)no2)nc2cc3c(cc2c1=O)OCO3
Q: // compare: I vs II , metric RP-LC retention time, want the smaller Write down the label of the entry you select.
A: I

1 = Cc1nnc(C2CCCCCN2C(=O)c2cn[nH]c2)o1 (stereo not given)
2 = Cc1ccccc1-c1cn2ccn(-c3ccc(Cl)cc3)c(=O)c2n1
Q: Short answer wanted: higher RP-LC retention time, 1 or 2 ? Write down the label of the entry you select.
A: 2

a = CCCNC(=O)C1CCCN1C(=O)c1ccc(NC(=O)C(C)(C)C)cc1 (stereo not given)
b = O=c1c2ccccc2n(Cc2nc(-c3ccc(Cl)cc3)no2)c(=O)n1CC1CCCO1 (stereo not given)
Q: // compare: a vs b , metric RP-LC retention time, want the smaller Write down the label of the entry you select.
A: a
